Just for reference, the supplement of paper PMC11061612 is where these values come from.

System: PCI-30 (Head and Neck Carcinoma)
Test: Bliss excess, mean over the matrix (fraction); higher = more synergy
Assay Endpoint: Bliss excess
The response must contain the number and no unit.

Compound	Study System	Bliss excess
NC1(C(=O)N[C@@H](CCO)c2ccc(Cl)cc2)CCN(c2ncnc3[nH]ccc23)CC1 [Capivasertib] + COc1nnc2ccc(N3CCC(c4ccc(OCCN5CCN(C)C(=O)[C@H]5C)cc4)CC3)nn12 [AZD5153] (first compound max 10 µM, 7x7, partner max 1 µM)	PCI-30 (Head and Neck Carcinoma)	0.0406

**Query** Requested field: Bliss excess. Item: COc1cccc(OCCCN)c1-c1cc(Nc2cnc(C#N)cn2)n[nH]1 [Prexasertib] + CCc1c2c(nc3ccc(O)cc13)-c1cc3c(c(=O)n1C2)COC(=O)[C@]3(O)CC [SN-38] (first compound max 1 µM, 7x7, partner max 0.3 µM)
**Result** 0.0215

====

Tested on: PCI-30 (Head and Neck Carcinoma)
Assay: combination Emax (second highest fraction inhibited in the dose matrix, 72 h); higher = more inhibition; extreme values may be limits of the assay
// reported combination Emax per item

// below: answered compounds
Compound	Study System	Measured Result
Cc1cc2ncnn2cc1Nc1ncc2c(n1)n(C1CCOCC1)c(=O)n2C [AZD7648] + O=C(c1cc(Cc2n[nH]c(=O)c3ccccc23)ccc1F)N1CCN(C(=O)C2CC2)CC1 [Olaparib] (first compound max 10 µM, 7x7, partner max 10 µM)	PCI-30 (Head and Neck Carcinoma)	0.198
Cc1c2c(nn1C)CSCc1cc(n(C)n1)CSc1cc(c3ccccc3c1)OCCCc1c(C(=O)O)n(C)c3c-2c(Cl)ccc13 [AZD5991] + C[C@@H]1COCCN1C2=NC(=NC(=C2)C3(CC3)[S@](=N)(=O)C)C4=C5C=CNC5=NC=C4 [AZD6738] (first compound max 1 µM, 7x7, partner max 10 µM)	PCI-30 (Head and Neck Carcinoma)	0.603
CN(C)CCCOc1ccc(-c2ccc3ncc4c(c3c2)n(C2CCOCC2)c(=O)n4C)cn1 [AZD0156] + CCN(CCO)CCCOc1ccc2c(Nc3cc(CC(=O)Nc4cccc(F)c4)[nH]n3)ncnc2c1 [AZD2811] (first compound max 1 µM, 7x7, partner max 1 µM)	PCI-30 (Head and Neck Carcinoma)	0.192
COc1nnc2ccc(N3CCC(c4ccc(OCCN5CCN(C)C(=O)[C@H]5C)cc4)CC3)nn12 [AZD5153] + CC1(C)CCC(CN2CCN(c3ccc(C(=O)NS(=O)(=O)c4ccc(NCC5CCOCC5)c([N+](=O)[O-])c4)c(Oc4cnc5[nH]ccc5c4)c3)CC2)=C(c2ccc(Cl)cc2)C1 [Venetoclax] (first compound max 1 µM, 7x7, partner max 1 µM)	PCI-30 (Head and Neck Carcinoma)	0.344
Cn1cnc2c(F)c(Nc3ccc(Br)cc3Cl)c(C(=O)NOCCO)cc21 [Selumetinib] + C=CCn1c(=O)c2cnc(Nc3ccc(N4CCN(C)CC4)cc3)nc2n1-c1cccc(C(C)(C)O)n1 [AZD1775] (first compound max 10 µM, partner max 1 µM)	PCI-30 (Head and Neck Carcinoma)	0.173

**Query** Requested field: combination Emax. Item: C=CCn1c(=O)c2cnc(Nc3ccc(N4CCN(C)CC4)cc3)nc2n1-c1cccc(C(C)(C)O)n1 [AZD1775] + C1CN(CCC1(C(=O)N[C@@H](CCO)C2=CC=C(C=C2)Cl)N)C3=NC=NC4=C3C=CN4 [Capivasertib] (first compound max 3 µM, partner max 3 µM)
**Result** 0.477

**Query** Requested field: combination Emax. Item: Cc1c2c(nn1C)CSCc1cc(n(C)n1)CSc1cc(c3ccccc3c1)OCCCc1c(C(=O)O)n(C)c3c-2c(Cl)ccc13 [AZD5991] + C1CN(CCC1(C(=O)N[C@@H](CCO)C2=CC=C(C=C2)Cl)N)C3=NC=NC4=C3C=CN4 [Capivasertib] (first compound max 1 µM, 7x7, partner max 3 µM)
**Result** 0.237

**Query** Requested field: combination Emax. Item: CCc1c2c(nc3ccc(O)cc13)-c1cc3c(c(=O)n1C2)COC(=O)[C@]3(O)CC [SN-38] + O=C(c1cc(Cc2n[nH]c(=O)c3ccccc23)ccc1F)N1CCN(C(=O)C2CC2)CC1 [Olaparib] (first compound max 0.3 µM, 7x7, partner max 10 µM)
**Result** 0.727

**Query** Requested field: combination Emax. Item: COc1cccc(OCCCN)c1-c1cc(Nc2cnc(C#N)cn2)n[nH]1 [Prexasertib] + C=CCn1c(=O)c2cnc(Nc3ccc(N4CCN(C)CC4)cc3)nc2n1-c1cccc(C(C)(C)O)n1 [AZD1775] (first compound max 1 µM, partner max 1 µM)
**Result** 0.894

**Query** Requested field: combination Emax. Item: CS(=O)(=O)CCNCc1ccc(-c2ccc3ncnc(Nc4ccc(OCc5cccc(F)c5)c(Cl)c4)c3c2)o1 [Lapatinib] + C[C@@H](Oc1cc(-c2cnn(C3CCNCC3)c2)cnc1N)c1c(Cl)ccc(F)c1Cl [Crizotinib] (first compound max 10 µM, 7x7, partner max 10 µM)
**Result** 0.366
